TARGET DESC: P2Y1 receptor (Homo sapiens)
Construct: expressed in transfected cells
ASSAY: Cell based HTRF assay measuring IP1 accumulation; antagonism of the P2Y1 agonist MRS2365
CONDITION INFO: rounded to nearest whole number; read-out: IC50 IP1
Description: IC50 values were determined using a cell based assay in stably transfected cells overexpressing the P2Y1 receptor. […] For the assay, IP1 accumulation was quantified using the IPOne kit according to manufacturer's instructions. In short, a standard curve was prepared for IP1 quantification, and cells lysed using kit lysis buffer. […] Plates were analysed on a BMG Pherastar plate reader, and IP1 signal generated in cells interpolated from the standard curve.
MEASUREMENT NAME: IC50 (nM)

Recorded IC50, per entry:
Cn1cc(-c2cccc(Oc3ncccc3NC(=O)Nc3ccc(OC(F)(F)F)cc3)c2)cn1	8180
CC(C)(C)c1ccccc1Oc1ncc(-c2ccccc2)cc1NC(=O)Nc1ccc(OC(F)(F)F)cc1	7580
Cc1c(Oc2ncccc2NC(=O)Nc2ccc(OC(F)(F)F)cc2)cccc1-c1ccc2ccn(C)c2c1	778

a: CC(C)(C)c1ccccc1Oc1ncccc1NC(=O)Nc1ccc(C(F)(F)F)s1
b: COc1ccc([C@H](C)NC(=O)Nc2cccnc2Oc2ccccc2C(C)(C)C)cc1
c: CC(C)(C)c1ccccc1Oc1ncc(Br)cc1NC(=O)Nc1ccc(OC(F)(F)F)cc1
d: Cc1ccccc1Oc1ncncc1NC(=O)Nc1ccc(OC(F)(F)F)cc1
e: CC(C)(C)c1ccccc1Oc1ncccc1NC(=O)Nc1ccc2c(c1)OC(F)(F)O2
Input line: Would you mind ranking these compounds by ascending IC50? Answer format: list of labels, ordered as asked.
Output line: e, a, c, b, d

1: Cc1ccccc1Oc1ncc(Br)cc1NC(=O)Nc1ccc(OC(F)(F)F)cc1
2: Cc1cnc(Oc2ccccc2C(C)(C)C)c(NC(=O)Nc2ccc(OC(F)(F)F)cc2)c1
Input line: Two entries are listed, 1 and 2 . Which one carries the higher IC50? Could you answer with the label of the item you picked?
Output line: 1
(1: 4940 nM, 2: 151 nM)

###

TARGET DESC: P2Y1 receptor (Homo sapiens)
Construct: expressed in transfected cells
ASSAY: Cell based HTRF assay measuring IP1 accumulation; antagonism of the P2Y1 agonist MRS2365
CONDITION INFO: rounded to nearest whole number; read-out: IC50 IP1
pIC50: −log10 of the molar value.
MEASUREMENT NAME: pIC50

Recorded pIC50, per entry:
Cc1c(Oc2ncccc2NC(=O)Nc2ccc(OC(F)(F)F)cc2)cccc1N1CCCC1	6.18
COc1ccc(Br)c(Oc2ncccc2NC(=O)Nc2ccc(OC(F)(F)F)cc2)c1	5.15
O=C(Nc1ccc(OC(F)(F)F)cc1F)Nc1cccnc1Oc1ccccc1S(F)(F)(F)(F)F	6.76
CC(C)(C)c1ccccc1Oc1ncc(-c2cccc(C#N)c2)cc1NC(=O)Nc1ccc(OC(F)(F)F)cc1	5.71
CC(C)(C)c1ccccc1Sc1ncccc1NC(=O)Nc1ccc(OC(F)(F)F)cc1	7.24

I: O=C(Nc1ccc(OC(F)(F)F)cc1)Nc1cccnc1Oc1ccccc1S(F)(F)(F)(F)F
II: CC(C)(C)c1ccccc1Oc1ncc(C#N)cc1NC(=O)Nc1ccc(OC(F)(F)F)cc1
Input line: Two entries are listed, I and II . Which one carries the higher pIC50? Could you answer with the label of the item you picked?
Output line: I

a: Cc1c(Oc2ncccc2NC(=O)Nc2ccc(OC(F)(F)F)cc2)cccc1N1CCOCC1
b: Cc1ccccc1Oc1ncc(C(F)F)cc1NC(=O)Nc1ccc(OC(F)(F)F)cc1
Input line: Two entries are listed, a and b . Which one carries the higher pIC50? Could you answer with the label of the item you picked?
Output line: a
(a: 6.48, b: 5.70)

###

ASSAY: CNS penetration: intravenous cassette pharmacokinetic study, brain and plasma by LC-MS/MS
CONDITION INFO: mouse, in vivo
Marks after values point to notes of the source that are not given here.
MEASUREMENT NAME: CNS penetrant (asterisk)

Cc1c(Oc2ncccc2NC(=O)Nc2ccc(OC(F)(F)F)cc2)cccc1N1CCCCC1	S9*
CC(C)(C)c1ccccc1Oc1ncccc1NC(=O)Nc1ccc(C(F)(F)F)s1	S8*
CC(C)(C)c1ccccc1Oc1cccc(O)c1NC(=O)Nc1ccc(OC(F)(F)F)cc1	S11*
O=C(Nc1ccc(OC(F)(F)F)cc1)Nc1cccnc1Oc1ccccc1C1(C(F)(F)F)CC1	S4*

###

TARGET DESC: P2Y1 receptor (Homo sapiens, UniProt P47900)
Construct: expressed in transfected cells
Sequence (P47900 whole entry): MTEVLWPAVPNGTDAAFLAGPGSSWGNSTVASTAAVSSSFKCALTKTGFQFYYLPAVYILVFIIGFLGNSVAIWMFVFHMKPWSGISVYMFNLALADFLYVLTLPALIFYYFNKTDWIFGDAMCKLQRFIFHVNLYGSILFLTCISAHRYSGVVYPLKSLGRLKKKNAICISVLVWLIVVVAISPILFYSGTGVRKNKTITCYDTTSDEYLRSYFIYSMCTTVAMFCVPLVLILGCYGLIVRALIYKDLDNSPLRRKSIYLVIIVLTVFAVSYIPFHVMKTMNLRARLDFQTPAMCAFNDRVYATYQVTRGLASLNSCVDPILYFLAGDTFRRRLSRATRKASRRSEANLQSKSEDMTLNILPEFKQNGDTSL
ASSAY: Cell based HTRF assay measuring IP1 accumulation; antagonism of the P2Y1 agonist MRS2365
CONDITION INFO: rounded to nearest whole number; read-out: IC50 IP1
MEASUREMENT NAME: IC50 (nM)

Cc1ccccc1COc1ncccc1NC(=O)Nc1ccc(OC(F)(F)F)cc1	4590
CC(C)(C)c1ccccc1Oc1ncccc1NC(=O)NCc1ccc(OC(F)(F)F)cc1	301
O=C(Nc1ccc(OC(F)(F)F)cc1)Nc1cccnc1Oc1ccccc1N1CCCCC1	632
CC(C)(C)c1ccccc1Oc1nnccc1NC(=O)Nc1ccc(OC(F)(F)F)cc1	1770
O=C(Nc1ccc(OC(F)(F)F)cc1)Nc1cccnc1Oc1ccccc1Br	925

a: CC(C)(C)c1ccccc1Oc1nccc(O)c1NC(=O)Nc1ccccc1
b: Cn1cc(-c2cnc(Oc3ccccc3C(C)(C)C)c(NC(=O)Nc3ccc(OC(F)(F)F)cc3)c2)cn1
c: Cc1ccccc1Oc1ncc(C(F)(F)F)cc1NC(=O)Nc1ccc(OC(F)(F)F)cc1
d: CC(C)(O)c1ccccc1Oc1ncccc1NC(=O)Nc1ccc(OC(F)(F)F)cc1
e: CC(C)c1cccc(C(F)F)c1Oc1ncccc1NC(=O)Nc1ccc(OC(F)(F)F)cc1
Input line: Returns the items ordered by IC50, from maximum to minimum. Answer format: list of labels, ordered as asked.
Output line: d, c, a, b, e

A: C#Cc1cnc(Oc2ccccc2C)c(NC(=O)Nc2ccc(OC(F)(F)F)cc2)c1
B: O=C(Nc1ccc(OC(F)(F)F)cc1)Nc1cccnc1Oc1cccc(O)c1
Input line: Two entries are listed, A and B . Which one carries the higher IC50? Could you answer with the label of the item you picked?
Output line: A
(A: 3590 nM, B: 1410 nM)

A: Cc1c(Oc2ncccc2NC(=O)Nc2ccc(OC(F)(F)F)cc2)cccc1N1CC2CC1CO2 (stereo not drawn)
B: Cc1c(Oc2ncccc2NC(=O)Nc2ccc(OC(F)(F)F)cc2)cccc1-c1ccc(C#N)cc1
Input line: Two entries are listed, A and B . Which one carries the higher IC50? Could you answer with the label of the item you picked?
Output line: A

A: CC(C)(C)c1ccccc1Oc1ncccc1NC(=O)NC1CC2(C1)CN(CC(F)(F)F)C2
B: C=Cc1cnc(Oc2ccccc2C)c(NC(=O)Nc2ccc(OC(F)(F)F)cc2)c1
Input line: When the recorded IC50 values are compared, which is smaller: that of A or that of B ? Could you answer with the label of the item you picked?
Output line: B
(B: 3350 nM, A: 7070 nM)

P: Cc1c(Oc2ncccc2NC(=O)Nc2ccc(OC(F)(F)F)cc2)cccc1S(C)(=O)=O
Q: N#Cc1cccc(-c2cccc(Oc3ncccc3NC(=O)Nc3ccc(OC(F)(F)F)cc3)c2)c1
Input line: When the recorded IC50 values are compared, which is smaller: that of P or that of Q ? Could you answer with the label of the item you picked?
Output line: Q
(Q: 2510 nM, P: 6590 nM)

###

TARGET DESC: P2Y1 receptor (Homo sapiens, UniProt P47900)
Construct: expressed in transfected cells
ASSAY: Cell based HTRF assay measuring IP1 accumulation; antagonism of the P2Y1 agonist MRS2365
CONDITION INFO: rounded to nearest whole number; read-out: IC50 IP1
Procedure: IC50 values were determined using a cell based assay in stably transfected cells overexpressing the P2Y1 receptor. […] For the assay, IP1 accumulation was quantified using the IPOne kit according to manufacturer's instructions. In short, a standard curve was prepared for IP1 quantification, and cells lysed using kit lysis buffer. […] Plates were analysed on a BMG Pherastar plate reader, and IP1 signal generated in cells interpolated from the standard curve.
pIC50: −log10 of the molar value.
MEASUREMENT NAME: pIC50

CC(C)(C)c1ccccc1Oc1cccc(O)c1NC(=O)Nc1ccc(OC(F)(F)F)cc1 [S11]	6.82

I: CC(C)(C)c1cccc(Oc2ncccc2NC(=O)Nc2ccc(OC(F)(F)F)cc2)c1 [S20]
II: Cc1c(Oc2ncccc2NC(=O)Nc2ccc(OC(F)(F)F)cc2)cccc1N1CCCCC1 [S9]
Input line: Two entries are listed, I and II . Which one carries the higher pIC50? Could you answer with the label of the item you picked?
Output line: II

1: O=C(Nc1ccc(OC(F)(F)F)cc1)Nc1cccnc1Oc1cc(O)ccc1Br [S50]
2: CC(C)(C)c1ccccc1Oc1ncc(-c2ccc3c(c2)OCCN3)cc1NC(=O)Nc1ccc(OC(F)(F)F)cc1 [S26]
Input line: Two entries are listed, 1 and 2 . Which one carries the higher pIC50? Could you answer with the label of the item you picked?
Output line: 2

A: O=C(Nc1ccc(OC(F)(F)F)cc1)Nc1cccnc1Oc1cccc(N2CCCCC2)c1 [S31]
B: Cc1ccc(C)c(Oc2ncccc2NC(=O)Nc2ccc(OC(F)(F)F)cc2)c1 [S55]
Input line: Two entries are listed, A and B . Which one carries the higher pIC50? Could you answer with the label of the item you picked?
Output line: A
(A: 6.22, B: 5.70)

I: O=C(Nc1ccc(OC(F)(F)F)cc1)Nc1cccnc1Oc1cccc(OCc2ccccc2)c1 [S40]
II: N#Cc1cccc(Oc2ncccc2NC(=O)Nc2ccc(OC(F)(F)F)cc2)c1 [S73]
III: Cc1c(Oc2ncccc2NC(=O)Nc2ccc(OC(F)(F)F)cc2)cccc1-c1cccc(C#N)c1 [S27]
Input line: Would you mind ranking these compounds by ascending pIC50? Answer format: list of labels, ordered as asked.
Output line: II, I, III
(II: 5.23, I: 6.03, III: 6.29)

These data points were gathered from patent EP4094762A1.
